Entries and their measured TGI follow.
# Tested on: CCRF-CEM leukemia
# protocol-summary: NCI tumour cell line growth inhibition, 48 h

1) CC(=O)Nc1ccc(C(=O)N2N=C(C)/C(=C/c3ccc(O)cc3)C2=O)cc1; > 100 µM

As a next step, examine the compound that follows.
IN: What does the data say about its TGI? Entry: CCOC(=O)CCCn1cc(C(=O)OC)nn1
OUT: > 100 µM

---

# Test system: HOP-92 NSCLC
# protocol-summary: NCI tumour cell line growth inhibition, 48 h
The entries below come with measured TGI values attached.
All answers are understood in µM, so give the number only.

Consider the reported TGI for these compounds:
1) COc1ccc(NC(=O)c2sc3nc4c(cc3c2N)CCCC4)cc1; 76.3
2) COc1ccc(-c2cc(/C=C/C(=O)c3cc(OC)c(OC)c(OC)c3)[nH]n2)cc1OC; 5.48
3) CN(C)C/C=C/C(=O)Nc1ccc(C(=O)N2CCC[C@@H](Nc3ncc(Cl)c(-c4c[nH]c5ccccc45)n3)C2)cc1; 1.54

IN: Please state recorded TGI (tested on HOP-92 NSCLC) of O=c1oc2ccc(F)cc2c(=O)n1-c1ccc(Br)cc1F
OUT: 0.528

IN: Also CC1(C)C2CCC13C(=O)C1OC3(C2)C2C(=O)c3c(O)cccc3C(=O)C12 (configuration not stated) ?
OUT: 1.89

// provenance: PubChem BioAssay (NCI)
